target: mouse P2X1 receptor (Mus musculus, UniProt P51576); construct: EST clones containing full-length cDNAs of mouse P2X1 (clone ID: 4189541) and human P2X7 receptor (clone ID: 5286944); host or cells: Xenopus oocytes (cRNA injected); assay: Two-electrode voltage clamp, ATP-induced ion current in Xenopus oocytes expressing mouse P2X1; format: cell-based; details: concentration-response curve, 2 μM ATP, mean of four observations; read-out: IC50 value
Sequence (P51576 whole entry): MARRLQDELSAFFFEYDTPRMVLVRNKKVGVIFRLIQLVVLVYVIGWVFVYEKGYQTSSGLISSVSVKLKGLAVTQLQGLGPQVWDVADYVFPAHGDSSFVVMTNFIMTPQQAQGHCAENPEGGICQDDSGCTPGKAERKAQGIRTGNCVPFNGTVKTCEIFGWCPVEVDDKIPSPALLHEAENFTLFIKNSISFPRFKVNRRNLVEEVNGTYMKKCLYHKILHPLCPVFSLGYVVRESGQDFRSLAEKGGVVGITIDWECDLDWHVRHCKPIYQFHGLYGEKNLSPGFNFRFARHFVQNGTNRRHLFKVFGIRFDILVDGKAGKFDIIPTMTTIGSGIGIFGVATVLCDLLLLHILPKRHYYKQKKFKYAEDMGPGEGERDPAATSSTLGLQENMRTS
// reported pIC50 per item
Just so you know, pIC50 here is -log10 of the concentration in molar units; reply with that number alone.

Before answering, review these 2 worked examples.
- smiles entry: "Cc1nc(N=Nc2ccc(C(=O)O)cc2)c(CCC(=O)O)c(C=O)c1O"
  data value: 6.89
- smiles entry: "Cc1nc(C=Cc2ccccc2)c(C(=O)O)c(C(=O)O)c1O"
  data value: 6.29

Q. Could you please provide reported pIC50 for "Cc1nc(N=Nc2cc(S(=O)(=O)O)ccc2S(=O)(=O)O)c(CCC(=O)O)c(C=O)c1O" ? Thanks!
A. 7.15

Q. For the molecule "Cc1nc(CCc2ccc(C(=O)O)cc2)c(C(=O)O)c(C(=O)O)c1O" , give its measured pIC50 value.
A. 6.73

Q. For the molecule "Cc1nc(CCc2ccccc2)c(C(=O)O)c(C(=O)O)c1O" , give its measured pIC50 value.
A. 6.44
